assay: Stability test: storage of Compound (A) and salts thereof, total increase in amounts of related substance; type: physicochemical; details: storage 60° C., Natural humidity, 1 Week
metric.name: Total increase in amounts of related substance (%)

* C[C@@H](N[C@H]1CCN(c2ccc(CC(=O)O)cc2)C1)c1cccc2ccccc12 [Compound (A) Crystal (Form A)] | 0.03
* C1CCOC1.C[C@@H](N[C@H]1CCN(c2ccc(CC(=O)O)cc2)C1)c1cccc2ccccc12.Cl [Compound (A) 1HCl•1THF Crystal] | 0.75
* C[C@@H](N[C@H]1CCN(c2ccc(CC(=O)O)cc2)C1)c1cccc2ccccc12 [Compound (A) Crystal (Form B)] | 0.00
* C[C@@H](N[C@H]1CCN(c2ccc(CC(=O)O)cc2)C1)c1cccc2ccccc12 [Compound (A) Amorphous] | 3.32
* Br.C[C@@H](N[C@H]1CCN(c2ccc(CC(=O)O)cc2)C1)c1cccc2ccccc12 [Compound (A) 1HBr Crystal] | 0.21
* C[C@@H](N[C@H]1CCN(c2ccc(CC(=O)O)cc2)C1)c1cccc2ccccc12.Cl [Compound (A) 1HCl Crystal] | 0.18

* * *

Each entry below carries its reported Total increase in amounts of related substance (%).
test: Stability test: storage of Compound (A) and salts thereof, total increase in amounts of related substance; type: physicochemical; settings: storage 60° C., 75% RH, 1 Week
metric.name: Total increase in amounts of related substance (%)

* C[C@@H](N[C@H]1CCN(c2ccc(CC(=O)O)cc2)C1)c1cccc2ccccc12 [Compound (A) Amorphous] | 14.16
* C[C@@H](N[C@H]1CCN(c2ccc(CC(=O)O)cc2)C1)c1cccc2ccccc12.Cl [Compound (A) 1HCl Crystal] | 1.02
* Br.C[C@@H](N[C@H]1CCN(c2ccc(CC(=O)O)cc2)C1)c1cccc2ccccc12 [Compound (A) 1HBr Crystal] | 0.13
* C1CCOC1.C[C@@H](N[C@H]1CCN(c2ccc(CC(=O)O)cc2)C1)c1cccc2ccccc12.Cl [Compound (A) 1HCl•1THF Crystal] | 1.04
* C[C@@H](N[C@H]1CCN(c2ccc(CC(=O)O)cc2)C1)c1cccc2ccccc12 [Compound (A) Crystal (Form B)] | 0.00
* C[C@@H](N[C@H]1CCN(c2ccc(CC(=O)O)cc2)C1)c1cccc2ccccc12 [Compound (A) Crystal (Form A)] | 0.01
